B1: TPR t1 (parent)
chain: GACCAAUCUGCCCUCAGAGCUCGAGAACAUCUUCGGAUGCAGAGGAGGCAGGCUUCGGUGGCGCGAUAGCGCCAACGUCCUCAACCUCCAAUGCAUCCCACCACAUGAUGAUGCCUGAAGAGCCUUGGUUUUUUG

Variants of: B1
Run description: polymerase ribozyme fitness, log enrichment relative to wild type (log ratio); higher = more active; in vitro selection for triplet polymerase activity
As shown below, each of these variants has a reported polymerase ribozyme fitness (log ratio) value.
// return a plain number; no unit text

Example cases with answers are listed next.
In [3]: df
Out[3]:
        variant_id                               value_type  experimental_value
0        C56U C73G  polymerase ribozyme fitness (log ratio)                  -2
1       C62A A103U  polymerase ribozyme fitness (log ratio)               -5.71
2  G17C A46G C124A  polymerase ribozyme fitness (log ratio)               -1.43
3  A2G C114A U126C  polymerase ribozyme fitness (log ratio)               -4.32
4       A29U U126C  polymerase ribozyme fitness (log ratio)               -2.33

Data request: Query: polymerase ribozyme fitness (log ratio); subject: G110A G127C
Data returned: -1.94

Data request: Do the same for A5G A26C A100U U106A C124A please
Data returned: -1.48

Data request: Do the same for C11A G48U G69U A103C please
Data returned: -3.74

Data request: Do the same for G71U C102U please
Data returned: -1.69

Data request: Do the same for A26G G45A please
Data returned: -2.64

Data request: Do the same for U21C C28U C101G G110C please
Data returned: -5.65

Data request: Do the same for A6C C15G U55G C94G C124G G127A please
Data returned: -3.17

Data request: Do the same for C13U C76U please
Data returned: -0.121

Data request: Do the same for G47U A50G please
Data returned: -1.99

All values here come from the RNAGym collection of RNA variant scans (doi:10.1073/pnas.2313332121).
